MEASURE NAME: logP

[
  {
    "CPD SMILES": "O=c1[nH]cnc2nc[nH]c12",
    "MEASURE NAME": "logP",
    "MEASURED RESULT": -0.96
  }
]

* * *

ASSAY NAME: method code SF, from DOI: 10.1055/s-0038-1624171, PMID: 6548017
PARTICULARS: pH 7.4
MEASURE NAME: logD

[
  {
    "CPD SMILES": "O=[N+]([O-])c1nccn1CCOc1ccc(I)cc1",
    "MEASURE NAME": "logD",
    "MEASURED RESULT": 2.84
  }
]

* * *

ASSAY NAME: method code SF-HPLC, from DOI: 10.1002/ps.2780130506
MEASURE NAME: logP

[
  {
    "CPD SMILES": "CNC(=O)ON=Cc1cccc(Oc2ccccc2)c1",
    "MEASURED RESULT": 3.12
  }
]

* * *

MEASURE NAME: logP

[
  {
    "CPD SMILES": "O=C(O)C(=O)Nc1ccc(Cl)cc1",
    "MEASURED RESULT": 2.08
  },
  {
    "CPD SMILES": "O=C(O)CONC(=O)c1c(Cl)cccc1Cl",
    "MEASURED RESULT": 0.83
  },
  {
    "CPD SMILES": "Cc1ncn(-c2ccc(Cl)cc2)c(=O)c1C(=O)O",
    "MEASURED RESULT": 2.26
  }
]

* * *

ASSAY NAME: method code SF-AS, from DOI: 10.1021/es00082a014
PARTICULARS: pH 7.0

[
  {
    "CPD SMILES": "Cc1cc(C)c(N)cc1C",
    "logD": 2.29
  }
]

* * *

ASSAY NAME: method code SF-AS, from Zsuzsa, H.; Nora, K. (1979). Study on the partition coefficient of acetanilides. Nehezvegyp. Kut. Intez. Kozl., 8, 139-146.

[
  {
    "MOLECULE": "CC(Cl)C(=O)N(CC(=O)Nc1ccccc1)c1ccccc1 (stereo unspecified)",
    "logP": 3.02
  }
]

* * *

MEASURE NAME: logP

[
  {
    "CPD SMILES": "Cc1nnn[nH]1",
    "MEASURED RESULT": -0.49
  }
]

* * *

MEASURE NAME: logP

[
  {
    "CPD SMILES": "Cc1cc2cccc(C)c2cc1C",
    "MEASURED RESULT": 4.73
  }
]

* * *

ASSAY NAME: method code SF-HPLC, from DOI: 10.1023/a:1015956705293, PMID: 3244625
PARTICULARS: pH 2.5
MEASURE NAME: logD

[
  {
    "COMPOUND": "CC12CCC(=O)C=C1CCC1C2C(O)CC2(C)C1CCC2(O)C(=O)COC(=O)CCC(=O)O (stereo unspecified)",
    "MEASURED RESULT": 2.11
  }
]

* * *

ASSAY NAME: method code SF-AS, from DOI: 10.1016/j.jct.2016.12.034
PARTICULARS: pH 7.4
MEASURE NAME: logD

[
  {
    "CPD SMILES": "CC(=O)Nc1ccc(C=NNC(N)=S)cc1",
    "MEASURED RESULT": 1.7
  }
]
